# Test system: LX-2
# method_notes: Inhibition of HSC activation in TGF-beta1-treated human LX2 cells assessed as decrease in COL1A1 mRNA level at 0.5 uM incubated for 24 hrs by qPCR analysis
# Format: functional, cell-based
Calls of active or inactive are those of the source. The calls are words filed in the database; no cut-off is given here.
Hi! Could you answer with just one of these? active, inactive

Solved cases below.
Short answer needed: outcome of this test for CCC(OC(=O)C1=C[C@@H](O)[C@@H](O)[C@H](O)C1)c1cccc(OCCCC(C)(C)O)c1 (stereo partly drawn) ?
active

Another compound to look at: CCCC(OC(=O)C1=C[C@@H](O)[C@@H](O)[C@H](O)C1)c1cccc(OCCCC(C)(C)O)c1 (stereo partly drawn)
active

***
Could you check what this test reported for CCCC(O)(CCC)CCCOc1cccc2c1CCCC2OC(=O)C1=C[C@@H](O)[C@@H](O)[C@H](O)C1 (stereo partly drawn) ?
active

Now this one: `CCC(O)(CC)c1ccc(-c2ccc(COC(=O)C3=C[C@@H](O)[C@@H](O)[C@H](O)C3)s2)c(C)c1`
active

Please answer likewise for OC(COc1ccc(/C=C/C2=C[C@@H](O)[C@@H](O)[C@H](O)C2)c2c1CCCC2)c1ccccc1 (stereo partly drawn)
inactive

Next record, please: CCC(OC(=O)C1=C[C@@H](O)[C@@H](O)[C@H](O)C1)c1cccc(OCCCC(O)(CC)CC)c1 (stereo partly drawn)
active

What about this compound? O=C(OC1CCCc2c(OCCCN3CCOCC3)cccc21)C1=C[C@@H](O)[C@@H](O)[C@H](O)C1 (stereo partly drawn)
inactive

Here is the next compound: `O=C(COc1ccc(/C=C/C2=C[C@@H](O)[C@@H](O)[C@H](O)C2)c2c1CCCC2)c1ccccc1`
active
